Reference source: patent US8003783B2

System: 17β-HSD1 (Homo sapiens, UniProt P14061)
Construct: was measured in intact cell monolayers of T47D and MDA-MB-231 breast cancer cells respectively; endogenous in cells; host or cells: T-47D human breast cancer cells
Test Protocol: 17β-HSD Type I activity in T-47D cells (E1→E2)
Assay type: cell-based
Run Conditions: T47D, 10 μM; T-47D cells, E1→E2; read-out: % inhibition of 17β-HSD1 @ 10 μM
Lab note: compare inhibition at 10 µM against 40%. Equal or greater, write TRUE. Smaller, write FALSE.

Example entries begin here.
C[C@]12CCC3c4ccc(O)cc4CCC3C1C/C(=C\c1ccco1)C2=O (some centres unmarked) = FALSE
CCNC(=O)CC1CC2C3CCc4cc(O)ccc4C3CC[C@]2(C)[C@H]1O (some centres unmarked) = TRUE
C[C@]12CCC3c4ccc(O)cc4CCC3C1CC(=N/O)/C2=N\O (some centres unmarked) = TRUE
CN1CCN(C(=O)C2CC3C4CCc5cc(O)ccc5C4CC[C@]3(C)[C@H]2O)CC1 (some centres unmarked) = TRUE
COc1cc(/C=C2\CC3C4CCc5cc(O)ccc5C4CC[C@]3(C)C2=O)cc(OC)c1OC (some centres unmarked) = FALSE

Is inhibition at 10 µM at least 40%? Consider C[C@]12CCC3c4ccc(O)cc4CCC3C1CC(CC(=O)NCc1ccco1)[C@@H]2O (some centres unmarked) FALSE

Is the recorded value of inhibition at 10 µM equal to or greater than 40% for this compound? CC(C)NC(=O)CC1CC2C3CCc4cc(O)ccc4C3CC[C@]2(C)C1=O (some centres unmarked) TRUE

Does the compound COc1cc2c(cc1O)CCC1C2CC[C@]2(C)C(=O)C(C#N)CC12 (some centres unmarked) have recorded inhibition at 10 µM that is 40% or more? FALSE
